observation.type: melting point (°C)

I: Cc1cc(C(=O)O)cc(O)n1
II: COc1ccc(-c2cc(NN=c3c(C(F)(F)F)nc4ccccc4[nH]c3=O)[nH]n2)cc1
// query Kindly identify the item with the lower melting point figure among these two: I and II Mark your answer with the label of the selected entry.
// result II

A: Cn1[nH]c([N+](=O)[O-])c2c(=O)ccnc1-2
B: CCOc1c(N2CCOCC2)cnn(C)c1=O
// query Kindly identify the item with the lower melting point figure among these two: A and B Mark your answer with the label of the selected entry.
// result B

a: O=c1ccc2cc(Cl)ccc2o1
b: CCCCCCCCOC(=O)c1ccccc1C(=O)OCCCCCCCC(C)C
// query Kindly identify the item with the lower melting point figure among these two: a and b Mark your answer with the label of the selected entry.
// result b
